Dear all, this message contains SI (CC50/IC50) results, target or system Marburg pseudovirus (GP MARV).

[
  {
    "COMPOUND": "CCn1c(-c2ccc(Cl)cc2)cs/c1=N/N=C1\\C[C@H]2CC[C@]1(C)C2(C)C [Compound 5c]",
    "TESTED ON": "Marburg pseudovirus (GP MARV)",
    "SI (CC50/IC50)": 2
  },
  {
    "COMPOUND": "CC1(C)[C@@H]2CC[C@@]1(C)/C(=N/N=c1/scc(-c3ccccc3)n1-c1ccccc1)C2 [Compound 8a]",
    "TESTED ON": "Marburg pseudovirus (GP MARV)",
    "SI (CC50/IC50)": 3
  },
  {
    "COMPOUND": "CCNC(=S)N/N=C1\\C[C@@H]2CC[C@@]1(C)C2(C)C [2′c]",
    "TESTED ON": "Marburg pseudovirus (GP MARV)",
    "SI (CC50/IC50)": 16
  },
  {
    "COMPOUND": "C=CCn1c(-c2ccccc2)cs/c1=N/N=C1\\C[C@H]2CC[C@]1(C)C2(C)C [Compound 8b]",
    "TESTED ON": "Marburg pseudovirus (GP MARV)",
    "SI (CC50/IC50)": "<2"
  },
  {
    "COMPOUND": "C=CCn1c(-c2ccc(C)cc2)cs/c1=N/N=C1\\C[C@H]2CC[C@]1(C)C2(C)C [Compound 6b]",
    "TESTED ON": "Marburg pseudovirus (GP MARV)",
    "SI (CC50/IC50)": 7
  },
  {
    "COMPOUND": "CC1(C)S/C(=N/N=C2/C[C@H]3CC[C@]2(C)C3(C)C)N(c2ccccc2)C1=O [Compound 4a]",
    "TESTED ON": "Marburg pseudovirus (GP MARV)",
    "SI (CC50/IC50)": 3
  },
  {
    "COMPOUND": "CN1C(=O)CS/C1=N/N=C1/C[C@@H]2CC[C@@]1(C)C2(C)C [3′d]",
    "TESTED ON": "Marburg pseudovirus (GP MARV)",
    "SI (CC50/IC50)": 6
  },
  {
    "COMPOUND": "C=CCNC(=S)N/N=C1\\C[C@H]2CC[C@]1(C)C2(C)C [Compound 2b]",
    "TESTED ON": "Marburg pseudovirus (GP MARV)",
    "SI (CC50/IC50)": 5
  },
  {
    "COMPOUND": "CCN1C(=O)C(C)(C)SC1=NN=C1CC2CCC1(C)C2(C)C (stereo not shown) [Compound 4c]",
    "TESTED ON": "Marburg pseudovirus (GP MARV)",
    "SI (CC50/IC50)": 5
  },
  {
    "COMPOUND": "Cn1c(-c2ccccc2)cs/c1=N/N=C1\\C[C@H]2CC[C@]1(C)C2(C)C [Compound 8d]",
    "TESTED ON": "Marburg pseudovirus (GP MARV)",
    "SI (CC50/IC50)": "<2"
  },
  {
    "COMPOUND": "C=CCN1C(=O)CS/C1=N/N=C1/C[C@H]2CC[C@]1(C)C2(C)C [Compound 3b]",
    "TESTED ON": "Marburg pseudovirus (GP MARV)",
    "SI (CC50/IC50)": 5
  },
  {
    "COMPOUND": "COc1ccc(-c2cs/c(=N/N=C3\\C[C@H]4CC[C@]3(C)C4(C)C)n2-c2ccccc2)cc1 [Compound 7a]",
    "TESTED ON": "Marburg pseudovirus (GP MARV)",
    "SI (CC50/IC50)": 8
  },
  {
    "COMPOUND": "CN1C(=O)C(C)(C)S/C1=N/N=C1/C[C@H]2CC[C@]1(C)C2(C)C [Compound 4d]",
    "TESTED ON": "Marburg pseudovirus (GP MARV)",
    "SI (CC50/IC50)": 13
  }
]
